System: B16–F10 cells
Protocol details: Mitochondrial-membrane potential (Rh123) flow cytometry, B16–F10
Type: cell-based, murine
Condition set: B16–F10, 72 h at IC50 concentration
Measurement label: Rh123 staining (mitochondrial-membrane potential)

Compound structure	Experimental result
CC1(C)CC[C@]2(C(=O)O)CC[C@]3(C)C(=CC[C@@H]4[C@@]5(C)C[C@@H](OC(=O)c6cc7ccccc7oc6=O)[C@H](OC(=O)c6cc7ccccc7oc6=O)C(C)(C)[C@@H]5CC[C@]43C)[C@@H]2C1	positive Rh123 staining
CC1(C)CC[C@]2(C(=O)NCCCNC(=O)/C=C/c3ccc(O)cc3)CC[C@]3(C)C(=CC[C@@H]4[C@@]5(C)C[C@@H](O)[C@H](O)C(C)(C)[C@@H]5CC[C@]43C)[C@@H]2C1	positive Rh123 staining
CC1(C)CC[C@]2(C(=O)NCCCNC(=O)Cc3cc(=O)oc4cc(O)ccc34)CC[C@]3(C)C(=CC[C@@H]4[C@@]5(C)C[C@@H](O)[C@H](O)C(C)(C)[C@@H]5CC[C@]43C)[C@@H]2C1	positive Rh123 staining
CC1(C)CC[C@]2(C(=O)NCCCNC(=O)c3cc4ccccc4oc3=O)CC[C@]3(C)C(=CC[C@@H]4[C@@]5(C)C[C@@H](O)[C@H](O)C(C)(C)[C@@H]5CC[C@]43C)[C@@H]2C1	positive Rh123 staining
